Tested on: NCI-H23
assay.text: NCI tumour cell line growth inhibition, 48 h
Activity calls are given as the source filed them. Rule as the data show it: active = GI50 up to about 1.1 µM and inactive = higher.
Classes used: active, inactive

• CC1(C)CCC[C@](C)([C@H]2CC[C@]3(C)[C@@H]2[C@H](O)C[C@@H]2[C@@]4(C)CC[C@H](O)C(C)(C)[C@@H]4[C@H](O)C[C@]23C)O1 = inactive
• O=C1C=CC(CC(=O)c2ccc3ccccc3c2)O1 (centres undefined) = inactive
• COC1OC(COC(=O)NCCCCC(=O)C(F)(F)F)C(O)C(O)C1O (centres undefined) = inactive
• COc1cc(C2c3cc4c(cc3[C@@H](Nc3ccc(N)cc3)C3COC(=O)[C@H]23)OCO4)cc(OC)c1O (some centres undefined) = active
